Kindly supply the reported pIC50 values for the records listed here.
- ASSAY_SYSTEM: Avi-KRAS WT (2-169) GTP/RAF1 RBD-3xFLAG (51-131) (Homo sapiens, UniProt P01116)
- Construct: Avi-KRAS WT (2-169)
- Sequence (P01116 2-169 isoform P01116-2): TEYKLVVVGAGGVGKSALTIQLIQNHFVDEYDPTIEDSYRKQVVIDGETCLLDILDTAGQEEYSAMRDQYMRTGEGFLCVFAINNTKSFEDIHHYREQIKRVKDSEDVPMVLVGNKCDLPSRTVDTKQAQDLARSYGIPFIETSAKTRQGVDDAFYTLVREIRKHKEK
- EXPERIMENT_NOTES: Raf1-KRAS WT-GTP disruption HTRF assay (Biological Example 3)
- Type: binding
- ASSAY_CONDITIONS: KRAS WT, GTP-loaded
pIC50: −log10 of the molar value.

Kindly indicate its recorded pIC50. Item: CCN(c1nc(OC[C@@]23CCCN2C[C@H](F)C3)nc2c(F)c(-c3ccc(F)c4sc(N)c(C#N)c34)c(C(F)(F)F)cc12)[C@H]1C[C@@H](C)N(C(=O)[C@H]2CCO2)C1 (atropisomer, axis not shown)
6.00 to 7.00

Kindly indicate its recorded pIC50. Item: CCN(c1nc(OC[C@@]23CCCN2C[C@H](F)C3)nc2c(F)c(-c3ccc(F)c4sc(N)c(C#N)c34)c(C(F)(F)F)cc12)[C@H]1C[C@@H]2COCC(=O)N2C1 (atropisomer, axis not shown)
6.00 to 7.00

Taken from patent US20260042764A1.
